Below: a set of entries, each annotated with reported melting point.

Some entries whose results are on file:
compound | melting point
COc1cccc(C2(CC(=O)O)CNC(=O)C2)c1 (stereo unspecified) | 144 to 146 °C
O=P(O)(O)c1cccc(OCc2ccc3ccccc3c2)c1 | 131 to 134 °C
Cc1cnc2n(c1=O)C(C)CCC2=NNc1ccccc1 (stereo unspecified) | 165 to 166 °C
O=C1Cc2ccccc2N1CCCl | 74 °C
COC(=O)C1=C(C)NC(C)=C(C(=O)OC(C)C)C1c1cc([N+](=O)[O-])ccc1Cl (stereo unspecified) | 163 °C

*Q* Need melting point of `O=C(O)c1cn(C2CC2)c2nc(N3Cc4cccc(CO)c4C3)c(F)cc2c1=O` , thanks.
*A* > 300 °C

====

endpoint: melting point

Some entries whose results are on file:
compound | endpoint | result
O=C(CN(CCOCc1ccccc1)Cc1ccccc1)Nc1ccc2c3c(nn2CCN(CCOCc2ccccc2)Cc2ccccc2)-c2cc(O)ccc2Oc13 | melting point | 106 to 110 °C
Cc1nccc2[nH]c(=O)c(C(N)=O)cc12 | melting point | > 320 °C
Cc1c(C)n(CC=CC(F)(F)F)c2c(OCc3ccccc3)nncc12 | melting point | 138 to 140 °C
O=C(O)CCSCC(=O)c1cc2[nH]c(=O)[nH]c2cc1Cl | melting point | 186 to 187 °C
CCC(CO)Nc1cc(C)nc(Oc2c(C)cc(Cl)cc2C)c1CO (stereo unspecified) | melting point | 133 to 135 °C

*Q* Need melting point of CC(C)OC(=O)C(C)Oc1ncn(-c2ccc(Cl)cc2Cl)n1 (stereo unspecified) , thanks.
*A* 55 to 57 °C

*Q* // repeat for `N#CCc1cc(I)cc(Cc2nc3c(F)c(F)cc(F)c3s2)c1` and report
*A* 127 to 130 °C

*Q* // repeat for CC(C(=O)O)c1ccc(Nc2nc3ccccc3[nH]2)cc1 (stereo unspecified) and report
*A* 355 to 358 °C

*Q* // repeat for `Cc1cscc1NC(=S)Nc1cccc(C)c1N` and report
*A* 184 to 186 °C

*Q* // repeat for CC1=C(C(=O)OC(C)C)C(c2cccc([N+](=O)[O-])c2)N(CCCc2ccccc2)C(=O)N1 (stereo unspecified) and report
*A* 150 to 152 °C

*Q* // repeat for `CCCCn1c(=O)c2[nH]c(N3CCCCC3)nc2n(CCCC)c1=O` and report
*A* 221 °C

====

Below: a set of entries, each annotated with reported melting point.

compound | melting point
CCc1nc2c(C)c(C#N)c(C)nc2n1-c1ccc(CCNC(=O)NS(=O)(=O)c2ccc(C)cc2)cc1 | 133 °C
CN(C)n1cn[nH]c1=O | 127 °C
Nc1nc2c(Cc3ccsc3)c(I)[nH]c2c(=O)[nH]1 | > 260 °C

*Q* Need melting point of CCCc1c(OCC(=O)OC)ccc2c1OC(CCCCCCO)CC2=O (stereo not given) , thanks.
*A* 93 to 94.5 °C

*Q* // repeat for CC1(C)OC(=O)N(Cc2ccccc2[N+](=O)[O-])C1O (stereo not given) and report
*A* 119 to 120 °C

*Q* // repeat for `CCOC(=O)CNC(=O)Nc1ccc(S(=O)(=O)Nc2onc(C)c2C)cc1` and report
*A* 115 to 125 °C

*Q* // repeat for `CCOC(=O)c1cnc2sc(-c3ccc([N+](=O)[O-])cc3)c(C)c2c1O` and report
*A* 260 to 261 °C

*Q* // repeat for `CC(C)[C@H](N)C(=O)OCc1nc2c(N)nc3ccccc3c2n1CCCCNS(C)(=O)=O` and report
*A* 161 to 163 °C

*Q* // repeat for `C[C@H](NC(=O)OC(C)(C)C)[C@@H]1CCN(c2nc3c(cc2F)c(=O)n(N)c(=O)n3C2CC2)C1` and report
*A* 175 to 177 °C

*Q* // repeat for `CCCOc1cc(C)c2cc(Cn3ccnc3)ccc2n1` and report
*A* 138 °C

Numbers sourced from a melting point compilation (Tetko et al.; mined from patent text by program, amines drawn as free bases though some values may be those of a salt).
